Target: human KDR on cells (human, UniProt P35968 20-1356)
Sequence (P35968 20-1356): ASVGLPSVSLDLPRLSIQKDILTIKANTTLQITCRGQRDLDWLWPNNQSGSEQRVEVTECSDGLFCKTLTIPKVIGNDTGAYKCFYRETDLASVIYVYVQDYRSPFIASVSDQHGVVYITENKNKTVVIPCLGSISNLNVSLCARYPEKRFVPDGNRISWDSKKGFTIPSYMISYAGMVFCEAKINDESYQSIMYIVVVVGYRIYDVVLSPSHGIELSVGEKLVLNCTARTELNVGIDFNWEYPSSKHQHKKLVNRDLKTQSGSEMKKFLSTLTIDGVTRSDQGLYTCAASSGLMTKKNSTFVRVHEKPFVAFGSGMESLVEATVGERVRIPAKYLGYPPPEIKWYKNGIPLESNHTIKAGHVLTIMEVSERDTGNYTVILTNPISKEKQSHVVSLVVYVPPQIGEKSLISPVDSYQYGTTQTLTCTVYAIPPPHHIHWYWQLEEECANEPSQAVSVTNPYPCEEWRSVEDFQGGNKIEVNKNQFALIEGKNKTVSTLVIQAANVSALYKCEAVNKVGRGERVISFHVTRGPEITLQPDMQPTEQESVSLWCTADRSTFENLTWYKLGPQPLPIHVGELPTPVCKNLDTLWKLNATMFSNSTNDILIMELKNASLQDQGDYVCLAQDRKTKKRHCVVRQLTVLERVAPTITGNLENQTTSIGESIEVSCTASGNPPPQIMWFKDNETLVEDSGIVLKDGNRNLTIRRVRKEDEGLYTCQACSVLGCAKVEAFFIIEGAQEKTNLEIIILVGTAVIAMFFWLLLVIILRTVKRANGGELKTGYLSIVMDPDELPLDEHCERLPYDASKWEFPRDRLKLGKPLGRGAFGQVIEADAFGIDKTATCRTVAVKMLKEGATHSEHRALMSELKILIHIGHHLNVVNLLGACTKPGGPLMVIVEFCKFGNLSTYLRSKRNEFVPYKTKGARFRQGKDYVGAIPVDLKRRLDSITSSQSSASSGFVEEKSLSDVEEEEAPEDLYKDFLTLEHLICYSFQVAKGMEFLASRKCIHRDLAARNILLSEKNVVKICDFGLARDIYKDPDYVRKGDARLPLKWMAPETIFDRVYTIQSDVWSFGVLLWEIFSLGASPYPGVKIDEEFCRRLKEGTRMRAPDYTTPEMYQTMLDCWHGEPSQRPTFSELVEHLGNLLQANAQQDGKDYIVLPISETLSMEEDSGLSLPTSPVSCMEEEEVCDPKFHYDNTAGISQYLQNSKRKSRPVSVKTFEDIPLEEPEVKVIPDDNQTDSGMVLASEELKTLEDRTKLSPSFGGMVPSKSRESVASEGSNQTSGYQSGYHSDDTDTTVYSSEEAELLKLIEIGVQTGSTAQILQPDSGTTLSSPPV
Assay: cell-based or functional assay
Overview of reported % Inhibition (N = 2) of VEGF-C-mediated KDR activity, antibody 10 nM across a group of binders:
Measured metric: % Inhibition (N = 2) of VEGF-C-mediated KDR activity, antibody 10 nM

INSERT INTO results (binder, test_result) VALUES
  ('33B1 (antibody, V domains shown) VH: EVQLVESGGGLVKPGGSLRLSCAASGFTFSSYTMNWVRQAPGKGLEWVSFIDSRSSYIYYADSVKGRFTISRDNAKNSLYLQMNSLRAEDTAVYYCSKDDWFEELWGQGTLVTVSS VL: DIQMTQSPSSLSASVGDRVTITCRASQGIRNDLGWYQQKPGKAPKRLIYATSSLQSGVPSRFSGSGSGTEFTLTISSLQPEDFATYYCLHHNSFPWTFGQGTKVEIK', '62%'),
  ('24B3 (antibody, V domains shown, Purified fully human monoclonal antibody from XenoMouse hybridoma (IgG2 or IgG4 strains); also called MAb 24B3) VH: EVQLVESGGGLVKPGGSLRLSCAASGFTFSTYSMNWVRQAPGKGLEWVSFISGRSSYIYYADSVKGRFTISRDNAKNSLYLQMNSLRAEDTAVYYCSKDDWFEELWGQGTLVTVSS VL: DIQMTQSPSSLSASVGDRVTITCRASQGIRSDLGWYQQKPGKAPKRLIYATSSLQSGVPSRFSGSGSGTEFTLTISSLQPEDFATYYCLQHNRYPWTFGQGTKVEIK', '62%'),
  ('33C3 (antibody, V domains shown, Purified fully human monoclonal antibody from XenoMouse hybridoma (IgG2 or IgG4 strains); also called MAb 33C3) VH: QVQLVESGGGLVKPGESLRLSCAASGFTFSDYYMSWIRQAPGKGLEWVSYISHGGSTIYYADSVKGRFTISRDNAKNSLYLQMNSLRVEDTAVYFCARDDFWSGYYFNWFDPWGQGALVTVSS VL: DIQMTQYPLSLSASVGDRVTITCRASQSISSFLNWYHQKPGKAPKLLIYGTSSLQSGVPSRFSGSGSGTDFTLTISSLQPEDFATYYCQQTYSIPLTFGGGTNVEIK', '89%'),
  ('22B8 (antibody, V domains shown) VH: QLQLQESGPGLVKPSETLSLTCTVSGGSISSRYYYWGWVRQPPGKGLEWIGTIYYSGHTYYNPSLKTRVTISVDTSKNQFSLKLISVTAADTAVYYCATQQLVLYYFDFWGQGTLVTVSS VL: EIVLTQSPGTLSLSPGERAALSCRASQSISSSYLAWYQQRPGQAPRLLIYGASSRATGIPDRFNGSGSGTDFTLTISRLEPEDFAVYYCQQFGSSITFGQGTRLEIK', '56%');
